For each of the molecules below, state its In Vitro 100 nM (FAAH activity, % of control).
# Target under test: FAAH (Rattus norvegicus, UniProt P97612)
# Construct: Frozen brains (without cerebellum) from Wistar rats were used; from tissue; host or cells: Wistar rat brain (without cerebellum), washed membrane pellets
# Sequence (P97612 whole entry): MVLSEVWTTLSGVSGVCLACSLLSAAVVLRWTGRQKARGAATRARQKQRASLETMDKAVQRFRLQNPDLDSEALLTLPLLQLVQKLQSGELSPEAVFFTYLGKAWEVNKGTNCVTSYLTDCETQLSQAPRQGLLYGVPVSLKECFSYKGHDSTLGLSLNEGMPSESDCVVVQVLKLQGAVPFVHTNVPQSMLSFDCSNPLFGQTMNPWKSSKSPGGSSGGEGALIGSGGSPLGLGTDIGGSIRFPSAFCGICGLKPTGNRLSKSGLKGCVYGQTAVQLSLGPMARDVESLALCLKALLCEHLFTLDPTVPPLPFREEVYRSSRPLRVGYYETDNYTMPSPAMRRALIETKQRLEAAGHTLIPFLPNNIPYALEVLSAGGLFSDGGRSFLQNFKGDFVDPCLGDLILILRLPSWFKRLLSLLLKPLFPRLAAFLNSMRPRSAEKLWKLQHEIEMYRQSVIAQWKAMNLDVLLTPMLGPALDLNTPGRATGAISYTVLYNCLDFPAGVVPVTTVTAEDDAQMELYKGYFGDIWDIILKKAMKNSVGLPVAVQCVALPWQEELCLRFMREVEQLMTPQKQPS
# Assay: In vitro FAAH activity in rat brain membranes, 3H-AEA substrate, % of control
# Format: biochemical, Wistar rats
# Condition summary: rat brain membranes, compound at 100 nM, low value = strong inhibitor
# Protocol: 3. Biological Efficacy of Compounds of the Invention The in vitro test was performed according to the protocol described below. The controls for both in vitro and in vivo were the reaction mix minus the test compounds. […] The in vitro pharmaceutical FAAH activity was determined according to the following method: […] The FAAH activity was determined using AEA (labelled with 3H in the ethanolamine part of the molecule) as substrate and measuring the 3H-ethanolamine formed. […]

>>> result("CC1(C)COCN1C(=O)n1nnc2ccc(-c3ccccc3)cc21")
"1.3 % of control"
>>> result("CC1(C)COCN1C(=O)n1nnc2c(F)cc(F)cc21")
"1.6 % of control"
>>> result("CN(C(=O)n1cnc(-c2cccc(-c3cccc(C(N)=O)c3)c2)c1)C12CC3CC(CC(C3)C1)C2")
"127.3 % of control"
>>> result("COc1cc(-c2cn(C(=O)N(C)C3CCCCC3)cn2)ccc1F")
"19.2 % of control"
>>> result("Cc1nc(-c2ccccc2)nn1C(=O)N1COCC1(C)C")
"112.8 % of control"

Working through the 4 molecules below one at a time, give In Vitro 100 nM (FAAH activity, % of control) for each.
1. CN(C(=O)n1cnc(-c2ccc(O)c(N)c2)c1)C1CCCCC1.Cl
2. CN(C(=O)n1cnc(-c2cccnc2)c1)C12CC3CC(CC(C3)C1)C2
3. CC1(C)COCN1C(=O)n1cnc(-c2ccc(O)c(F)c2)c1
4. CN(C(=O)n1cnc(-c2cccc(OCc3ccccc3)c2)c1)C12CC3CC(CC(C3)C1)C2

Result block:
93.9 % of control
109.8 % of control
88.5 % of control
114.8 % of control
